test system: BT-549; test: Growth inhibition of human BT549 cells by sulforhodamine B assay; type: functional; details: read-out: pGI50 (converted)
# note: boundary value 4 µM maps to Not met; GI50 below it maps to Met

input: Lab note: GI50 threshold 4 µM. Does this compound come in strictly under it? CC(C)=CC(=O)O[C@@H]1CC(C)(C)C[C@H]2C3=CC[C@@H]4[C@@]5(C)CC[C@H](O)C(C)(C)[C@@H]5CC[C@@]4(C)[C@]3(C)CC[C@@]12C(=O)O
output: Not met

input: Lab note: GI50 threshold 4 µM. Does this compound come in strictly under it? CC(C)=CC(=O)O[C@@H]1CC(C)(C)C[C@H]2C3=CC[C@@H]4[C@@]5(C)CCC(=O)C(C)(C)[C@@H]5CC[C@@]4(C)[C@]3(C)CC[C@@]12C(=O)O
output: Not met

input: Lab note: GI50 threshold 4 µM. Does this compound come in strictly under it? C/C=C(/C)C(=O)O[C@@H]1CC(C)(C)C[C@H]2C3=CC[C@@H]4[C@@]5(C)CC[C@H](O)C(C)(C)[C@@H]5CC[C@@]4(C)[C@]3(C)CC[C@@]12C(=O)O
output: Met

input: Lab note: GI50 threshold 4 µM. Does this compound come in strictly under it? CC1(C)C[C@@H](O)[C@]2(C(=O)O)CC[C@]3(C)C(=CC[C@@H]4[C@@]5(C)C/C(=C\C=C\c6ccccc6)C(=O)C(C)(C)[C@@H]5CC[C@]43C)[C@@H]2C1
output: Met

input: Lab note: GI50 threshold 4 µM. Does this compound come in strictly under it? C/C=C(/C)C(=O)O[C@@H]1CC(C)(C)C[C@H]2C3=CC[C@@H]4[C@@]5(C)CCC(=O)C(C)(C)[C@@H]5CC[C@@]4(C)[C@]3(C)CC[C@@]12C(=O)O
output: Not met

----------
system: IGROV-1; test: Growth inhibition of human IGROV1 cells by sulforhodamine B assay; type: functional; details: read-out: pGI50 (converted)
Could you please report measured GI50 for the items listed next?
Hi! Could you send only the number? It should be in µM, unit omitted.

input: Sample CC1(C)C[C@@H](O)[C@]2(C(=O)O)CC[C@]3(C)C(=CC[C@@H]4[C@@]5(C)C/C(=C\C=C\c6ccccc6)C(=O)C(C)(C)[C@@H]5CC[C@]43C)[C@@H]2C1 — what was its GI50?
output: 4.17

input: Sample C/C=C(/C)C(=O)O[C@@H]1CC(C)(C)C[C@H]2C3=CC[C@@H]4[C@@]5(C)CCC(=O)C(C)(C)[C@@H]5CC[C@@]4(C)[C@]3(C)CC[C@@]12C(=O)O [LANTADENE A] — what was its GI50?
output: 6.76

input: Sample CC(C)=CC(=O)O[C@@H]1CC(C)(C)C[C@H]2C3=CC[C@@H]4[C@@]5(C)CCC(=O)C(C)(C)[C@@H]5CC[C@@]4(C)[C@]3(C)CC[C@@]12C(=O)O — what was its GI50?
output: 5.37

input: Sample C/C=C(/C)C(=O)O[C@@H]1CC(C)(C)C[C@H]2C3=CC[C@@H]4[C@@]5(C)CC[C@H](O)C(C)(C)[C@@H]5CC[C@@]4(C)[C@]3(C)CC[C@@]12C(=O)O [Reduced Lantadene A] — what was its GI50?
output: 2.29

input: Sample CC(C)=CC(=O)O[C@@H]1CC(C)(C)C[C@H]2C3=CC[C@@H]4[C@@]5(C)CC[C@H](O)C(C)(C)[C@@H]5CC[C@@]4(C)[C@]3(C)CC[C@@]12C(=O)O [Reduced Lantadene B] — what was its GI50?
output: 6.31
